target: BRD4 Bromodomain 1 (BRD4 BD1) (Homo sapiens, UniProt O60885); construct: 44-168 and BRD4 BD2; assay: AlphaScreen binding assay, BRD4 BD1; conditions: His-tagged BRD4 BD1 50 nM, biotinylated H4 (1-21) K5/8/12/16 tetra-acetylated peptide 50 nM, compounds listed under IC50 range headings
pIC50: −log10 of the molar value.

>  <molecule>
CC(=O)N1c2ccc(-c3cnn(CCS(C)(=O)=O)c3)c(OCCN(C)S(C)(=O)=O)c2CC[C@@H]1C

>  <target under test>
BRD4 Bromodomain 1 (BRD4 BD1) (Homo sapiens, UniProt O60885)

>  <pIC50>
5.00 to 6.00

$$$$
>  <molecule>
COC(=O)N1c2ccc(-c3cnn(CCO)c3)c(OC[C@H]3CCC(=O)N3)c2CC[C@@H]1C

>  <target under test>
BRD4 Bromodomain 1 (BRD4 BD1) (Homo sapiens, UniProt O60885)

>  <pIC50>
5.00 to 6.00

$$$$
>  <molecule>
CC(=O)N1c2c(F)cc(-c3cn[nH]c3)c(Oc3ccccc3)c2CC[C@@H]1C

>  <target under test>
BRD4 Bromodomain 1 (BRD4 BD1) (Homo sapiens, UniProt O60885)

>  <pIC50>
6.00 to 7.00

$$$$
>  <molecule>
CC(=O)N1c2ccc(-c3cnn(C4CCNCC4)c3)c(Nc3ccccc3)c2CC[C@@H]1C

>  <target under test>
BRD4 Bromodomain 1 (BRD4 BD1) (Homo sapiens, UniProt O60885)

>  <pIC50>
5.00 to 6.00

$$$$
>  <molecule>
CC(=O)N1c2ccc(-c3cnn(C4CCNCC4)c3)c(Oc3ccccc3)c2CC[C@@H]1C

>  <target under test>
BRD4 Bromodomain 1 (BRD4 BD1) (Homo sapiens, UniProt O60885)

>  <pIC50>
6.00 to 7.00

$$$$
>  <molecule>
CCCOc1c(-c2ccc(OCCN(C)C)cc2)ccc2c1CC[C@H](C)N2C(C)=O

>  <target under test>
BRD4 Bromodomain 1 (BRD4 BD1) (Homo sapiens, UniProt O60885)

>  <pIC50>
5.00 to 6.00

$$$$
>  <molecule>
C[C@H]1CCc2c(ccc(-c3cnn(C4CCNCC4)c3)c2Oc2ccc(F)cc2F)N1C(=O)C1CC1

>  <target under test>
BRD4 Bromodomain 1 (BRD4 BD1) (Homo sapiens, UniProt O60885)

>  <pIC50>
6.00 to 7.00

$$$$
>  <molecule>
CC(=O)N1c2ccc(-c3cnn(C4CCNCC4)c3)c(OC[C@H]3CCC(=O)N3)c2CC[C@@H]1C

>  <target under test>
BRD4 Bromodomain 1 (BRD4 BD1) (Homo sapiens, UniProt O60885)

>  <pIC50>
5.00 to 6.00

$$$$
>  <molecule>
COC(=O)N1c2c(F)cc(-c3cn(C)nn3)c(OC3CCC3)c2CC[C@@H]1C

>  <target under test>
BRD4 Bromodomain 1 (BRD4 BD1) (Homo sapiens, UniProt O60885)

>  <pIC50>
5.00 to 6.00

$$$$
>  <molecule>
CCCOc1c(-c2ccc(NS(C)(=O)=O)cc2)ccc2c1CC[C@H](C)N2C(C)=O

>  <target under test>
BRD4 Bromodomain 1 (BRD4 BD1) (Homo sapiens, UniProt O60885)

>  <pIC50>
5.00 to 6.00

$$$$
>  <molecule>
CC(=O)N1c2ccc(-c3cnn(C4CC4)c3)c(Oc3ccnc(C(F)(F)F)n3)c2CC[C@@H]1C

>  <target under test>
BRD4 Bromodomain 1 (BRD4 BD1) (Homo sapiens, UniProt O60885)

>  <pIC50>
6.00 to 7.00

$$$$
>  <molecule>
CCCOc1c(-c2ccc(N(C)S(C)(=O)=O)cc2)ccc2c1CC[C@H](C)N2C(C)=O

>  <target under test>
BRD4 Bromodomain 1 (BRD4 BD1) (Homo sapiens, UniProt O60885)

>  <pIC50>
5.00 to 6.00

$$$$
>  <molecule>
CC(=O)N1c2ccc(-c3cnn(C4CC4)c3)c(OCC3CCOCC3)c2CC[C@@H]1C

>  <target under test>
BRD4 Bromodomain 1 (BRD4 BD1) (Homo sapiens, UniProt O60885)

>  <pIC50>
6.00 to 7.00

$$$$
>  <molecule>
CC(=O)N1c2ccc(-c3cnn(C4CC4)c3)c(Oc3ccc(Cl)cc3)c2CC[C@@H]1C

>  <target under test>
BRD4 Bromodomain 1 (BRD4 BD1) (Homo sapiens, UniProt O60885)

>  <pIC50>
6.00 to 7.00

$$$$
>  <molecule>
COC(=O)N1c2ccc(-n3cc(N4CCOCC4)cn3)c(Oc3ccccc3)c2CC[C@@H]1C

>  <target under test>
BRD4 Bromodomain 1 (BRD4 BD1) (Homo sapiens, UniProt O60885)

>  <pIC50>
5.00 to 6.00

$$$$
>  <molecule>
CC(=O)N1c2ccc(-c3cnn(CC(C)(C)O)c3)c(OCC(=O)N(C)C)c2CC[C@@H]1C

>  <target under test>
BRD4 Bromodomain 1 (BRD4 BD1) (Homo sapiens, UniProt O60885)

>  <pIC50>
5.00 to 6.00

$$$$
>  <molecule>
CC1CCc2c(ccc(-c3cnn(C4CC4)c3)c2Oc2ccccc2)N1C(=O)C1CC1 (stereo not shown)

>  <target under test>
BRD4 Bromodomain 1 (BRD4 BD1) (Homo sapiens, UniProt O60885)

>  <pIC50>
6.00 to 7.00

$$$$
>  <molecule>
CC(=O)N1c2ccc(-c3cnn(CCO)c3)c(OCC(=O)N(C)C)c2CC[C@@H]1C

>  <target under test>
BRD4 Bromodomain 1 (BRD4 BD1) (Homo sapiens, UniProt O60885)

>  <pIC50>
5.00 to 6.00

$$$$
>  <molecule>
COC(=O)N1c2ccc(-c3cnn(CCS(C)(=O)=O)c3)c(OCC(=O)N3CCCC3)c2CC[C@@H]1C

>  <target under test>
BRD4 Bromodomain 1 (BRD4 BD1) (Homo sapiens, UniProt O60885)

>  <pIC50>
5.00 to 6.00

$$$$
>  <molecule>
CC(=O)N1c2ccc(-c3cnn(CCO)c3)c(OCC(=O)N3CCCC3)c2CC[C@@H]1C

>  <target under test>
BRD4 Bromodomain 1 (BRD4 BD1) (Homo sapiens, UniProt O60885)

>  <pIC50>
5.00 to 6.00

$$$$
>  <molecule>
C[C@H]1CCc2c(OC3CCC3)c(-c3cn(C)nn3)cc(F)c2N1C(=O)C1CC1

>  <target under test>
BRD4 Bromodomain 1 (BRD4 BD1) (Homo sapiens, UniProt O60885)

>  <pIC50>
6.00 to 7.00

$$$$
>  <molecule>
COC(=O)N1c2ccc(-c3cnn(C4CCNCC4)c3)c(Oc3ccc(F)cc3C#N)c2CC[C@@H]1C

>  <target under test>
BRD4 Bromodomain 1 (BRD4 BD1) (Homo sapiens, UniProt O60885)

>  <pIC50>
6.00 to 7.00

$$$$
>  <molecule>
CC(=O)N1c2ccc(-c3cnn(C4CC4)c3)c(O/C=C/Cl)c2CC[C@@H]1C

>  <target under test>
BRD4 Bromodomain 1 (BRD4 BD1) (Homo sapiens, UniProt O60885)

>  <pIC50>
5.00 to 6.00

$$$$
>  <molecule>
COC(=O)N1c2ccc(-c3cnn(C4CCNCC4)c3)c(OC3CCC3)c2CC[C@@H]1C

>  <target under test>
BRD4 Bromodomain 1 (BRD4 BD1) (Homo sapiens, UniProt O60885)

>  <pIC50>
> 7.00

$$$$
>  <molecule>
CCCOc1cccc2c1CC[C@H](C)N2C(C)=O

>  <target under test>
BRD4 Bromodomain 1 (BRD4 BD1) (Homo sapiens, UniProt O60885)

>  <pIC50>
≤ 5.00

$$$$
>  <molecule>
CCCOc1c(-c2ccc(NS(C)(=O)=O)cn2)ccc2c1CC[C@H](C)N2C(C)=O

>  <target under test>
BRD4 Bromodomain 1 (BRD4 BD1) (Homo sapiens, UniProt O60885)

>  <pIC50>
5.00 to 6.00

$$$$
>  <molecule>
CC(=O)N1c2ccc(-c3cnn(C4CC4)c3)c(Oc3ncccc3Cl)c2CC[C@@H]1C

>  <target under test>
BRD4 Bromodomain 1 (BRD4 BD1) (Homo sapiens, UniProt O60885)

>  <pIC50>
5.00 to 6.00

$$$$
>  <molecule>
COC(=O)N1c2ccc(-c3c[nH]c(C4CCNCC4)n3)c(OC3CCC3)c2CC[C@@H]1C

>  <target under test>
BRD4 Bromodomain 1 (BRD4 BD1) (Homo sapiens, UniProt O60885)

>  <pIC50>
6.00 to 7.00

$$$$
>  <molecule>
COC(=O)N1c2ccc(-c3cnn(C4CCNCC4)c3)c(Oc3cccc(F)c3C#N)c2CC[C@@H]1C

>  <target under test>
BRD4 Bromodomain 1 (BRD4 BD1) (Homo sapiens, UniProt O60885)

>  <pIC50>
6.00 to 7.00

$$$$
>  <molecule>
CCCOc1c(-c2cc3ccccn3n2)ccc2c1CC[C@H](C)N2C(C)=O

>  <target under test>
BRD4 Bromodomain 1 (BRD4 BD1) (Homo sapiens, UniProt O60885)

>  <pIC50>
5.00 to 6.00

$$$$
>  <molecule>
COC(=O)N1c2ccc(-c3cnn(CCO)c3)c(OCCN(C)S(C)(=O)=O)c2CC[C@@H]1C

>  <target under test>
BRD4 Bromodomain 1 (BRD4 BD1) (Homo sapiens, UniProt O60885)

>  <pIC50>
5.00 to 6.00

$$$$
>  <molecule>
CC(=O)N1c2ccc(-c3cnn(C4CCNCC4)c3)c(Oc3ccccc3Cl)c2CC[C@@H]1C

>  <target under test>
BRD4 Bromodomain 1 (BRD4 BD1) (Homo sapiens, UniProt O60885)

>  <pIC50>
6.00 to 7.00

$$$$
>  <molecule>
COC(=O)N1c2c(F)cc(-c3cnn(C4CCNCC4)c3)c(OC3CCC3)c2CC[C@@H]1C

>  <target under test>
BRD4 Bromodomain 1 (BRD4 BD1) (Homo sapiens, UniProt O60885)

>  <pIC50>
6.00 to 7.00

$$$$
>  <molecule>
C[C@H]1CCc2c(ccc(-c3cnn(C4CCNCC4)c3)c2Oc2ccccc2)N1C(=O)C1CC1

>  <target under test>
BRD4 Bromodomain 1 (BRD4 BD1) (Homo sapiens, UniProt O60885)

>  <pIC50>
6.00 to 7.00

$$$$
